Taken from patent US20210139581A1.

Measured koff by item
# target-desc: T1, human CD33 (human, UniProt P20138 18-259, limits assumed)
# T1 construct: Human CD33 immobilized on the BLI sensor tip or the BIAcore C1 chip; also called Siglec-3
# T1 sequence (P20138 18-259 limits assumed): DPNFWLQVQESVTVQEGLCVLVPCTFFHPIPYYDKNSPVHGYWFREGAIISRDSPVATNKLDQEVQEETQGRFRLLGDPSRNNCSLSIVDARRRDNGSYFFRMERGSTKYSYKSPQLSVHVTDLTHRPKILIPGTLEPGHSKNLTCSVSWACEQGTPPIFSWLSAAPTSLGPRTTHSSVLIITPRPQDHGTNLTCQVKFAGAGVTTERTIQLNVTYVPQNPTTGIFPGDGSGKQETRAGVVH
# procedure-details: BLI (ForteBio), Fab 100 nM on immobilized CD33
For clarity, give the value followed by its unit.

Request: I'd like to know its koff. The binder in question is AB-14.7 (antibody, V domains shown) VH: QVQLVQSGAEVKKPGASVKVSCKASGYTFTDYNYHWVRQAPGQGLEWIGFIYPSNGITGYAQKFQGRVTMTVDTSTSTVYMELSSLRSEDTAVYYCARSDVDYFDYWGQGTLVTVSS VL: DIQMTQSPSSLSASVGDRVTITCRASQSVGTSTYSYMHWYQQKPGKAPKLLIKYASNLESGVPSRFSGSGSGTDFTLTISSLQPEDFATYYCQHSWEIPLTFGQGTKLEIK
Result: 0.0002 s⁻¹

Request: Would you mind doing AB-14.3 (antibody, V domains shown) VH: QVQLVQSGAEVKKPGASVKVSCKASGYTFTDYNYHWVRQAPGQGLEWIGFIYPSNGITGSAQKFQGRVTMTVDTSTSTVYMELSSLRSEDTAVYYCARSDVDYFDYWGQGTLVTVSS VL: DIQMTQSPSSLSASVGDRVTITCRASQDVSTSTYSYMHWYQQKPGKAPKLLIKYVSNLESGVPSRFSGSGSGTDFTLTISSLQPEDFATYYCQHSWEIPLTFGQGTKLEIK as well?
Result: 0.0002 s⁻¹
